- measured-target: HCV NS5B genotype 1b (Hepatitis C virus genotype 1b, UniProt Q9WMX2)
- Construct: The protein was expressed with a 21 amino acid C-terminal deletion to remove transmembrane domain; expressed in transfected cells; host or cells: Huh-7
- experiment-summary: 3D-SCREEN assay (NS5B 3D-Screen platform, luciferase reporter gene)
- Format: cell-based
- assay-conditions: EC50_3DS_NS5B, Table 1, 3D-SCREEN assay results; Huh-7 cells, 24 hours with compound, firefly luciferase reporter
readout-label: pEC50
pEC50 here: minus log base 10 of the concentration, concentration in moles per litre.

Item Cc1ccc(N2C(=O)C(O)=C(C(=O)c3ccc(C(C)C)cc3)C2c2ccc(-c3ccccc3)cc2)nn1 (stereo not shown) [Example 45] with HCV NS5B genotype 1b (Hepatitis C virus genotype 1b, UniProt Q9WMX2) - pEC50? 5.40

Same question for CON=C(C1=C(O)C(=O)N(c2ccc(C)nn2)C1c1ccc(C(C)C)cc1)c1ccc(C)cc1 (mixture of isomers) [Example 53] please. 5.30

Try Cc1ccc(N2C(=O)C(O)=C(C(=O)c3ccc(N(C)C)cc3)C2c2ccc(C(C)C)cc2)nn1 (stereo not shown) [Example 35] next. 5.52

Further, for Cc1ccc(C(=O)C2=C(O)C(=O)N(c3ccc(C)nn3)C2c2ccc(OC(C)C)cc2)cc1 (stereo not shown) [Example 33] ? 5.70

###

I'd be grateful if you could share measured melting point for these entries.

Would you kindly share the measured melting point for COc1ccc(C(=O)C2=C(O)C(=O)N(c3ccc(C)nn3)C2c2ccc(OC(F)(F)F)cc2)cn1 (centres unmarked) ? 250 to 251 °C

Try the molecule Cc1ccc(C(=O)C2=C(O)C(=O)N(c3ccc(C)nn3)C2c2cccc(OC(C)C)c2)cc1 (centres unmarked) 243 to 245 °C

Try this molecule next: Cc1ccc(C(=O)C2=C(O)C(=O)N(c3ccc(C)cn3)C2c2ccc(C(C)C)cc2)cc1 (centres unmarked) 259 to 261 °C

Next molecule: CCOc1ccc(C(=O)C2=C(O)C(=O)N(c3ccc(C)nn3)C2c2ccc(OC(F)(F)F)cc2)cc1 (centres unmarked) 255 to 257 °C

Also Cc1ccc(N2C(=O)C(O)=C(C(=O)c3ccc(C(C)C)cc3)C2c2ccc(O)cc2)nn1 (centres unmarked) ? 222 to 224 °C

Would you mind doing Cc1ccc(N2C(=O)C(O)=C(C(=O)c3ccc(C(C)C)cc3)C2c2ccc(N3CCOCC3)cc2)nn1 (centres unmarked) as well? 293 to 294 °C

Follow-up item: Cc1cccc(C(=O)C2=C(O)C(=O)N(c3ccc(C)nn3)C2c2ccc(C(C)C)cc2)c1 (centres unmarked) 245 to 250 °C

Same thing, different molecule: CC(=O)OC1=C(C(=O)c2ccc(C)cc2)C(c2ccc(OC(F)(F)F)cc2)N(c2ccc(C)nn2)C1=O (centres unmarked) 165 to 166.5 °C

Another: Cc1ccc(N2C(=O)C(O)=C(C(=O)c3ccc(C(C)C)cc3)C2c2ccc(C(C)C)cc2)cn1 (centres unmarked) 252 to 254 °C

And Cc1ccc(C(=O)C2=C(O)C(=O)N(c3ccc(C)nn3)C2c2ccc(OCCN(C)C)cc2)cc1 (centres unmarked) ? 263 to 266 °C

Cc1cnc(N2C(=O)C(O)=C(C(=O)c3ccc(C(C)C)cc3)C2c2ccc(OC(F)(F)F)cc2)cn1 (centres unmarked) , same question. 266 to 268 °C
